This collection of values is drawn from patent US20080234300A1.

- STUDY_SYSTEM: PDK-1 (Homo sapiens, UniProt O15530)
- Sequence (O15530 1-556): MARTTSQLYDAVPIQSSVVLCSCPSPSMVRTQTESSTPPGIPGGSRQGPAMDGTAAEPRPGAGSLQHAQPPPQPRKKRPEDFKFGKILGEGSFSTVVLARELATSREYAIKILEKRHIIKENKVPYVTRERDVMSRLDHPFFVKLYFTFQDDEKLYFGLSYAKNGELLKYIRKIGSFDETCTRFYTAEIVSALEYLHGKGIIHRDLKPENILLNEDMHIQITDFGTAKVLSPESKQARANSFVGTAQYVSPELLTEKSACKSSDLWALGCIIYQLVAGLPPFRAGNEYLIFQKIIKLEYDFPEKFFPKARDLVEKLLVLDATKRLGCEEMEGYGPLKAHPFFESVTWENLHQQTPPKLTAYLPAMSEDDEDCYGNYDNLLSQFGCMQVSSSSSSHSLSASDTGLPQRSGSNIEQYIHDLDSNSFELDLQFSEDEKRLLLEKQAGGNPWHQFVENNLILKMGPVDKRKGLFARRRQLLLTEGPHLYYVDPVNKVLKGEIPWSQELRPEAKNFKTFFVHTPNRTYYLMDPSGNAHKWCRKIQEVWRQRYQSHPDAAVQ
- ASSAY_SUMMARY: PDK-1 kinase inhibition ELISA assay (phosphorylation of His6-tagged SGK1 S422D by PDK-1)
- CONDITION_SET: in vitro ELISA; phosphorylation of His6-tagged SGK1 (S422D) on Thr256 by PDK-1, 20 minutes, chemiluminescent detection
pIC50: −log10 of the molar value.

[
  {
    "LINE_NOTATION": "COCCOc1cc2ncc3c(N)nc(N4CCC[C@H]4COC)nc3c2cc1OC",
    "VALUE_COMPARATOR": "=",
    "pIC50": 4.40
  },
  {
    "LINE_NOTATION": "COCCOc1cc2ncc3c(N)nc(N4CCN(C)CC4)nc3c2cc1OC",
    "VALUE_COMPARATOR": "<",
    "pIC50": 3.70
  },
  {
    "LINE_NOTATION": "COCCOc1cc2ncc3c(N)nc(N4CCC(=O)CC4)nc3c2cc1OC",
    "VALUE_COMPARATOR": "<",
    "pIC50": 3.70
  },
  {
    "LINE_NOTATION": "COCCOc1cc2ncc3c(N)nc(N4CCN(c5ccccc5)CC4)nc3c2cc1OC",
    "VALUE_COMPARATOR": "=",
    "pIC50": 3.96
  },
  {
    "LINE_NOTATION": "COCCOc1cc2ncc3c(N)nc(N4CCOc5ccccc5C4)nc3c2cc1OC",
    "VALUE_COMPARATOR": "=",
    "pIC50": 4.08
  }
]

----------
Quick reference: pIC50 of the listed items.
- STUDY_SYSTEM: PDK-1 (Homo sapiens)
- ASSAY_SUMMARY: PDK-1 kinase inhibition ELISA assay (phosphorylation of His6-tagged SGK1 S422D by PDK-1)
- CONDITION_SET: in vitro ELISA; phosphorylation of His6-tagged SGK1 (S422D) on Thr256 by PDK-1, 20 minutes, chemiluminescent detection
pIC50: −log10 of the molar value.
QUANTITY_MEASURED: pIC50

[
  {
    "COMPOUND": "COCCOc1cc2ncc3c(N)nc(N4CCC5(CC4)OCCO5)nc3c2cc1OC [Ia-10]",
    "VALUE_COMPARATOR": "=",
    "TEST_RESULT": 4.30
  },
  {
    "COMPOUND": "COCCOc1cc2ncc3c(N)nc(N4CCC[C@@H]4COC)nc3c2cc1OC [Ia-15]",
    "VALUE_COMPARATOR": "=",
    "TEST_RESULT": 5.67
  },
  {
    "COMPOUND": "COCCOc1cc2ncc3c(N)nc(N4CCC(O)C4)nc3c2cc1OC (centres unmarked) [Compound Ia-6]",
    "VALUE_COMPARATOR": "=",
    "TEST_RESULT": 4.44
  },
  {
    "COMPOUND": "COCCOc1cc2ncc3c(N)nc(NC4CCCCC4)nc3c2cc1OC [Ia-17]",
    "VALUE_COMPARATOR": "=",
    "TEST_RESULT": 5.27
  },
  {
    "COMPOUND": "CCOc1cc2ncc3c(N)nc(N)nc3c2cc1OCC [Ia-2]",
    "VALUE_COMPARATOR": "=",
    "TEST_RESULT": 4.75
  },
  {
    "COMPOUND": "COc1cc2ncc3c(N)nc(N)nc3c2cc1OC [Ia-1]",
    "VALUE_COMPARATOR": "=",
    "TEST_RESULT": 4.91
  },
  {
    "COMPOUND": "CCNc1nc(N)c2cnc3cc(OCCOC)c(OC)cc3c2n1 [Ia-9]",
    "VALUE_COMPARATOR": "<",
    "TEST_RESULT": 3.70
  },
  {
    "COMPOUND": "COCCOc1cc2ncc3c(N)nc(N(C)C)nc3c2cc1OC [Ia-8]",
    "VALUE_COMPARATOR": "=",
    "TEST_RESULT": 5.03
  },
  {
    "COMPOUND": "CCOc1cc2ncc3c(N)nc(N4CCOCC4)nc3c2cc1OCC [Ia-4]",
    "VALUE_COMPARATOR": "=",
    "TEST_RESULT": 4.25
  },
  {
    "COMPOUND": "COCCOc1cc2ncc3c(N)nc(N4CCCC4)nc3c2cc1OC [Ia-14]",
    "VALUE_COMPARATOR": "=",
    "TEST_RESULT": 5.18
  },
  {
    "COMPOUND": "COCCOc1cc2ncc3c(N)nc(N4CCOCC4)nc3c2cc1OC [Ia-5]",
    "VALUE_COMPARATOR": "<",
    "TEST_RESULT": 3.70
  }
]
